Hey, just so you know, these numbers are from patent US10385024B2.

system-under-test: Rat NHE-3 (Rattus norvegicus, UniProt P26433)
Construct: expressed in transfected cells; host or cells: Opossum kidney (OK) cells (ATCC), transfected by electroporation
Sequence (P26433 29-831): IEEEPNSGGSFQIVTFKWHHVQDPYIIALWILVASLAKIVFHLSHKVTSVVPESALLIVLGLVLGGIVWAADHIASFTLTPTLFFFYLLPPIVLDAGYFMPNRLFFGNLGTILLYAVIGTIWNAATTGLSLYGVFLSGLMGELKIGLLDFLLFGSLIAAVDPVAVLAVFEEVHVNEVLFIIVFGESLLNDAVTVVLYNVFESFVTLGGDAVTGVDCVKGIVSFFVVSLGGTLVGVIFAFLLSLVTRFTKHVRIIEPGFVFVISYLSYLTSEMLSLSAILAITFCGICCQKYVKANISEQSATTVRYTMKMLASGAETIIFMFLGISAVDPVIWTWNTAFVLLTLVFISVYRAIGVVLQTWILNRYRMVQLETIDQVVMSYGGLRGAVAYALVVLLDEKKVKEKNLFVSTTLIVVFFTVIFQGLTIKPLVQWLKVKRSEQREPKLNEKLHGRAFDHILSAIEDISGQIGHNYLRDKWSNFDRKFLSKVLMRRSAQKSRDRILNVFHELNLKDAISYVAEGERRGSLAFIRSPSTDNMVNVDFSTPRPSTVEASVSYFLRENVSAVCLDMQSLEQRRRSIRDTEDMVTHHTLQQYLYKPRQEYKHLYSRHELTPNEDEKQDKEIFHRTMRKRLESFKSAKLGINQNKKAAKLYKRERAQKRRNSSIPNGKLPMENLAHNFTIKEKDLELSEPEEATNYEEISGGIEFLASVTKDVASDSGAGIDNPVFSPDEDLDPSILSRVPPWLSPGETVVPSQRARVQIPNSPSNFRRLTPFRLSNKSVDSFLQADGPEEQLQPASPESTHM
measurement-description: Cell-based assay of NHE-3 activity (rat NHE-3 prompt inhibition)
conditions-used: OK cells with rat NHE-3 gene, compound present during pH recovery; read-out: Rat NHE3 pIC50 (prompt) (converted)
value-type: IC50

* CN1Cc2c(Cl)cc(Cl)cc2[C@H](c2cccc(S(=O)(=O)NCCOCCOCCOCCn3cc(CN(Cc4cn(CCOCCOCCOCCNS(=O)(=O)c5cccc([C@@H]6CN(C)Cc7c(Cl)cc(Cl)cc76)c5)nn4)Cc4cn(CCOCCOCCOCCNS(=O)(=O)c5cccc([C@@H]6CN(C)Cc7c(Cl)cc(Cl)cc76)c5)nn4)nn3)c2)C1 | 0.1 to 10 µM
* CN1Cc2c(Cl)cc(Cl)cc2[C@H](c2cccc(S(=O)(=O)NCCOCCOCCNC(=O)NCCN(CCNC(=O)NCCOCCOCCNS(=O)(=O)c3cccc([C@@H]4CN(C)Cc5c(Cl)cc(Cl)cc54)c3)C(=O)CCCCCCCCCCC(=O)N(CCNC(=O)NCCOCCOCCNS(=O)(=O)c3cccc([C@@H]4CN(C)Cc5c(Cl)cc(Cl)cc54)c3)CCNC(=O)NCCOCCOCCNS(=O)(=O)c3cccc([C@@H]4CN(C)Cc5c(Cl)cc(Cl)cc54)c3)c2)C1 | > 10 µM
* CN1Cc2c(Cl)cc(Cl)cc2[C@H](c2cccc(S(=O)(=O)NCCOCCOCCNC(=O)CCC(CCC(=O)NCCOCCOCCNS(=O)(=O)c3cccc([C@@H]4CN(C)Cc5c(Cl)cc(Cl)cc54)c3)(CCC(=O)NCCOCCOCCNS(=O)(=O)c3cccc([C@@H]4CN(C)Cc5c(Cl)cc(Cl)cc54)c3)[N+](=O)[O-])c2)C1 | 0.1 to 10 µM
* CN1Cc2c(Cl)cc(Cl)cc2[C@H](c2cccc(S(=O)(=O)NCCOCCOCCNC(=O)NCCC(N)(CCNC(=O)NCCOCCOCCNS(=O)(=O)c3cccc([C@@H]4CN(C)Cc5c(Cl)cc(Cl)cc54)c3)CCNC(=O)NCCOCCOCCNS(=O)(=O)c3cccc([C@@H]4CN(C)Cc5c(Cl)cc(Cl)cc54)c3)c2)C1 | < 0.1 µM
* CN1Cc2c(Cl)cc(Cl)cc2[C@H](c2cccc(S(=O)(=O)NCCOCCOCCOCCNC(=O)CCC(CCC(=O)NCCOCCOCCOCCNS(=O)(=O)c3cccc([C@@H]4CN(C)Cc5c(Cl)cc(Cl)cc54)c3)(CCC(=O)NCCOCCOCCOCCNS(=O)(=O)c3cccc([C@@H]4CN(C)Cc5c(Cl)cc(Cl)cc54)c3)NC(=O)c3ccc(-c4ccc(Cl)cc4)cc3)c2)C1 | 0.1 to 10 µM
* CN1Cc2c(Cl)cc(Cl)cc2[C@H](c2cccc(S(=O)(=O)NCCOCCOCCOCCNC(=O)CN(CCOCCOCCN(CC(=O)NCCOCCOCCOCCNS(=O)(=O)c3cccc([C@@H]4CN(C)Cc5c(Cl)cc(Cl)cc54)c3)CC(=O)NCCOCCOCCOCCNS(=O)(=O)c3cccc([C@@H]4CN(C)Cc5c(Cl)cc(Cl)cc54)c3)CC(=O)NCCOCCOCCOCCNS(=O)(=O)c3cccc([C@@H]4CN(C)Cc5c(Cl)cc(Cl)cc54)c3)c2)C1 | < 0.1 µM
* CN1Cc2c(Cl)cc(Cl)cc2[C@H](c2cccc(S(=O)(=O)NCCOCCOCCNC(=O)CCC(CCC(=O)NCCOCCOCCNS(=O)(=O)c3cccc([C@@H]4CN(C)Cc5c(Cl)cc(Cl)cc54)c3)(CCC(=O)NCCOCCOCCNS(=O)(=O)c3cccc([C@@H]4CN(C)Cc5c(Cl)cc(Cl)cc54)c3)N(C)C)c2)C1 | < 0.1 µM
* CN1Cc2c(Cl)cc(Cl)cc2[C@H](c2cccc(S(=O)(=O)NCCOCCOCCNC(=O)CCC(CCC(=O)NCCOCCOCCNS(=O)(=O)c3cccc([C@@H]4CN(C)Cc5c(Cl)cc(Cl)cc54)c3)(CCC(=O)NCCOCCOCCNS(=O)(=O)c3cccc([C@@H]4CN(C)Cc5c(Cl)cc(Cl)cc54)c3)NC(=O)N[C@@H](CC(=O)O)C(=O)O)c2)C1 | < 0.1 µM
* CN1Cc2c(Cl)cc(Cl)cc2[C@H](c2cccc(S(=O)(=O)NCCOCCOCCOCCNC(=O)CCC(CCC(=O)NCCOCCOCCOCCNS(=O)(=O)c3cccc([C@@H]4CN(C)Cc5c(Cl)cc(Cl)cc54)c3)(CCC(=O)NCCOCCOCCOCCNS(=O)(=O)c3cccc([C@@H]4CN(C)Cc5c(Cl)cc(Cl)cc54)c3)NC(=O)Nc3ccccc3)c2)C1 | 0.1 to 10 µM
* CN1Cc2c(Cl)cc(Cl)cc2[C@H](c2cccc(S(=O)(=O)NCCOCCOCCNC(=O)CCC(CCC(=O)NCCOCCOCCNS(=O)(=O)c3cccc([C@@H]4CN(C)Cc5c(Cl)cc(Cl)cc54)c3)(CCC(=O)NCCOCCOCCNS(=O)(=O)c3cccc([C@@H]4CN(C)Cc5c(Cl)cc(Cl)cc54)c3)NC(=O)COCC(=O)O)c2)C1 | < 0.1 µM
* CN1Cc2c(Cl)cc(Cl)cc2[C@H](c2cccc(S(=O)(=O)NCCOCCOCCNC(=O)CCC(CCC(=O)NCCOCCOCCNS(=O)(=O)c3cccc([C@@H]4CN(C)Cc5c(Cl)cc(Cl)cc54)c3)(CCC(=O)NCCOCCOCCNS(=O)(=O)c3cccc([C@@H]4CN(C)Cc5c(Cl)cc(Cl)cc54)c3)NC(=O)NCCN3CCOCC3)c2)C1 | < 0.1 µM
* CN1Cc2c(Cl)cc(Cl)cc2[C@H](c2cccc(S(=O)(=O)NCCOCCOCCOCCNC(=O)CCC(CCC(=O)NCCOCCOCCOCCNS(=O)(=O)c3cccc([C@@H]4CN(C)Cc5c(Cl)cc(Cl)cc54)c3)(CCC(=O)NCCOCCOCCOCCNS(=O)(=O)c3cccc([C@@H]4CN(C)Cc5c(Cl)cc(Cl)cc54)c3)NCc3ccc(-c4ccc(Cl)cc4)cc3)c2)C1 | > 10 µM
